Where do these numbers come from? They come from patent US8022206B2.

Target: RON (human) (Homo sapiens, UniProt Q04912)
Sequence (Q04912 25-1400): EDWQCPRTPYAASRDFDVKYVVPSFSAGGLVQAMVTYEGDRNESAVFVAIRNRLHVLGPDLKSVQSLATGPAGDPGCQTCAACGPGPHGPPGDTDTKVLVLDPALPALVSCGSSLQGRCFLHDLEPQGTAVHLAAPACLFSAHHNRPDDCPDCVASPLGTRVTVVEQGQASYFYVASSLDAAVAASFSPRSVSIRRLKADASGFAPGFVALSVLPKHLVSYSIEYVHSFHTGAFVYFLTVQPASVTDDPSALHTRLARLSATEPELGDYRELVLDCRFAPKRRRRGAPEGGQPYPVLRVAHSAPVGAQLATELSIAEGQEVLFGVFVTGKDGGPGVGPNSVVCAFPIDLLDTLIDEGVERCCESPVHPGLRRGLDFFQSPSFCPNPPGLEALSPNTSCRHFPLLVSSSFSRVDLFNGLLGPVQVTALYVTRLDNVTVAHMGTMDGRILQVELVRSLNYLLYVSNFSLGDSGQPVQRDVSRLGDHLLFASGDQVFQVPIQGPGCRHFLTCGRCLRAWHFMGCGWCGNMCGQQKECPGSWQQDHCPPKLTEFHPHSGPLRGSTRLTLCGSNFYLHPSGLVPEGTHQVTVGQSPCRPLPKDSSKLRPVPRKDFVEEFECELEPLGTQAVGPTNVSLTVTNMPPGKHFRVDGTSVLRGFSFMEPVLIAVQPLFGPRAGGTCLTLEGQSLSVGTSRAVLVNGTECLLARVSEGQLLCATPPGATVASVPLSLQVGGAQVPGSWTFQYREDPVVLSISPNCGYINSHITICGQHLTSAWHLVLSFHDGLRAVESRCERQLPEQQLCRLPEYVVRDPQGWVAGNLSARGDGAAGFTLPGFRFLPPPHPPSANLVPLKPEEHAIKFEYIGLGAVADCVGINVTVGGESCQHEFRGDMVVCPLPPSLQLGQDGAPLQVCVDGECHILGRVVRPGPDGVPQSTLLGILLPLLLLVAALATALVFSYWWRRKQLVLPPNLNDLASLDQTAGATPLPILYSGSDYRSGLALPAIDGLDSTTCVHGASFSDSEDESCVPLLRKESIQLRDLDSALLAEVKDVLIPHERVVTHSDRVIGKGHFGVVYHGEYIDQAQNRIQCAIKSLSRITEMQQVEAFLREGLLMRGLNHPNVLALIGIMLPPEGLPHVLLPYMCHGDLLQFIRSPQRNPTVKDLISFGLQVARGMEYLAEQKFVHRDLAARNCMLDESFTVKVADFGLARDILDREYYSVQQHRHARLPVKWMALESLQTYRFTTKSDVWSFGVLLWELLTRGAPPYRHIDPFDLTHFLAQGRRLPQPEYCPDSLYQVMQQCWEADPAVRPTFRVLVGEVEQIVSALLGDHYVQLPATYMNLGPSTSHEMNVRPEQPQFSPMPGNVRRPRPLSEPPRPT
Test: RON (human) AlphaScreen kinase assay, Km of ATP
Assay type: biochemical
Details: AlphaScreen, Km of ATP; read-out: RON biochemical IC50
Description: Someone skilled in the art will appreciate that a variety of assay formats may be used to determine the activity of the compounds of this invention. For example, AlphaScreen (Amplified Luminescent Proximity Homogeneous Assay) technology was used with the kinases described below. […] Desired compound is added in a final concentration of 1% DMSO with control being vehicle of DMSO alone. […] The plates, incubated for 1 h, are read on an AlphaQuest plate reader.
observable: IC50

Batch of 3 molecules: report IC50 for each.
1. CC(Oc1c(N)ncc2c(-c3cnn(C4CCNCC4)c3)coc12)c1ccc(C(F)(F)F)cc1 (centres unmarked)
2. CCCS(=O)(=O)Nc1cccc(-c2coc3c(O[C@H](C)c4c(Cl)ccc(F)c4Cl)c(N)ncc23)c1
3. C[C@@H](Oc1c(N)ncc2c(C3=CCN(C(=O)CCCN(C)C)CC3)coc12)c1c(Cl)ccc(F)c1Cl

Output:
1. 500 to 5000 nM
2. 500 to 5000 nM
3. < 500 nM

Batch of 6 molecules: report IC50 for each.
1. C[C@@H](Oc1c(N)ncc2c(C3=CCN(C(=O)[C@H](O)C(F)(F)F)CC3)coc12)c1c(Cl)ccc(F)c1Cl
2. C[C@@H](Oc1c(N)ncc2c(-c3ccc(N4CCN(C(N)=O)CC4)cc3)coc12)c1c(Cl)ccc(F)c1Cl
3. CC(=O)N1CCC(n2cc(-c3coc4c(O[C@H](C)c5c(Cl)ccc(F)c5Cl)c(N)ncc34)cn2)CC1
4. C[C@@H](Oc1c(N)ncc2c(-c3csc(CN)c3)coc12)c1c(Cl)ccc(F)c1Cl
5. C[C@H](O)C(=O)N1CC=C(c2coc3c(O[C@H](C)c4c(Cl)ccc(F)c4Cl)c(N)ncc23)CC1
6. COC(=O)c1csc(-c2coc3c(O[C@H](C)c4c(Cl)ccc(F)c4Cl)c(N)ncc23)c1

Output:
1: 500 to 5000 nM; 2: 500 to 5000 nM; 3: 500 to 5000 nM; 4: < 500 nM; 5: 500 to 5000 nM; 6: 500 to 5000 nM

Batch of 5 molecules: report IC50 for each.
1. C[C@@H]1CN(C(=O)N2CC=C(c3coc4c(O[C@H](C)c5c(Cl)ccc(F)c5Cl)c(N)ncc34)CC2)C[C@H](C)N1C (relative stereo)
2. C[C@@H](Oc1c(N)ncc2c(-c3ccc(S(C)(=O)=O)cc3)coc12)c1c(Cl)ccc(F)c1Cl
3. COCCCNC(=O)c1coc2c(O[C@H](C)c3c(Cl)ccc(F)c3Cl)c(N)ncc12
4. C[C@@H](Oc1c(N)ncc2c(C3=CCN(C(=O)c4cnn[nH]4)CC3)coc12)c1c(Cl)ccc(F)c1Cl
5. COc1cccc(-c2coc3c(O[C@H](C)c4c(Cl)ccc(F)c4Cl)c(N)ncc23)c1

Output:
["< 500 nM", "500 to 5000 nM", "500 to 5000 nM", "500 to 5000 nM", "5000 to 20000 nM"]

###

Target: RON (human) (Homo sapiens)
Experiment: RON (human) AlphaScreen kinase assay, Km of ATP
Format: biochemical
Settings: AlphaScreen, Km of ATP; read-out: RON biochemical IC50
pIC50: −log10 of the molar value.
observable: pIC50

Past entries and their recorded results:
[
  {
    "molecule": "COC(=O)N1CC=C(c2coc3c(O[C@H](C)c4c(Cl)ccc(F)c4Cl)c(N)ncc23)CC1",
    "endpoint value": "5.30 to 6.30"
  },
  {
    "molecule": "C[C@@H](Oc1c(N)ncc2c(C3=CCN(C(=O)C4CCCCC4)CC3)coc12)c1c(Cl)ccc(F)c1Cl",
    "endpoint value": "5.30 to 6.30"
  }
]

Please find the next molecule below.
Input: Answer with the recorded pIC50 for the molecule listed here: CC(Oc1c(N)ncc2c(-c3cnn(C4CCNCC4)c3)coc12)c1c(Cl)c(F)cc(F)c1Cl (stereo not drawn)
Output: > 6.30
